Provide the recorded %max for the entries that follow.
biological target: N-arachidonyl glycine receptor (Homo sapiens) (UniProt Q14330); test: Agonist activity at recombinant human GPR18 expressed in CHO cells assessed as increase in beta-arrestin recruitment incubated for 60 mins measured for 1 sec by luminescence assay; type: functional, cell-based
Field format: number, assumed %, no unit text.

# lookup: %max of `O=C1/C(=C/c2cccc(OCCCOc3ccc(Cl)cc3)c2)N=C2SCCCN12`
-16

# lookup: %max of `O=C1/C(=C/c2cccc(OCCCCCCOc3ccccc3Cl)c2)N=C2SCCCN12`
10

# lookup: %max of `O=C1NC(SCc2ccccc2)=N/C1=C\c1cccc(OCc2ccc(Cl)cc2)c1`
-17

# lookup: %max of `O=C1NC(SCc2ccc(Br)cc2)=N/C1=C\c1cccc(OCc2ccc(Cl)cc2)c1`
-11

# lookup: %max of `O=C1N=C2SCCN2/C1=C\c1cccc(OCc2ccc(Cl)cc2)c1`
13

# lookup: %max of `O=C1/C(=C/c2cccc(OCCc3ccccc3)c2)N=C2SCCCN12`
8

# lookup: %max of `O=C1/C(=C/c2cccc(OCc3ccc(Cl)cc3)c2)N=C2SCCN12`
1

---

Biological target: N-arachidonyl glycine receptor (Homo sapiens)
Sequence (Q14330 whole entry): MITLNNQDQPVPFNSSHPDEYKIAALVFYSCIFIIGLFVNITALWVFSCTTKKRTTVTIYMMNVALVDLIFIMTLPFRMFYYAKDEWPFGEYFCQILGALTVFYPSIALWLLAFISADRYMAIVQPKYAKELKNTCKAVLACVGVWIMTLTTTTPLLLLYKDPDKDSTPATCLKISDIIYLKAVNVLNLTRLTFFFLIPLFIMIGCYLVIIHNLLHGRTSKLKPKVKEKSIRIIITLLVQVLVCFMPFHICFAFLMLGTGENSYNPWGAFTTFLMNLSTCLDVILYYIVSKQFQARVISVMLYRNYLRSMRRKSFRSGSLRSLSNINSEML
Test: Antagonist activity at recombinant human GPR18 expressed in CHO cells assessed as inhibition of delta9-THC-induced beta-arrestin recruitment preincubated for 60 mins followed by delta9-THC addition for 90 mins measured for 1 sec by luminescence assay
Format: functional, cell-based
measurement.kind: pIC50
Here pIC50 is given on a logarithmic scale as minus log10 of the concentration in mol/L.

# lookup: pIC50 of `O=C1/C(=C/c2cccc(OCCCCCCCCOc3ccc(Cl)cc3)c2)N=C2SCCCN12`
5.94

# lookup: pIC50 of `O=C1/C(=C/c2cccc(OCCCCCCCOc3ccc(Cl)cc3)c2)N=C2SCCCN12`
5.77

# lookup: pIC50 of `O=C1/C(=C/c2cccc(OCc3ccc(Br)cc3)c2)N=C2SCCCN12`
5.76

# lookup: pIC50 of `Cc1cccc(C)c1OCCCCCCOc1cccc(/C=C2\N=C3SCCCN3C2=O)c1`
5.00

---

target: Cannabinoid receptor 1 (Homo sapiens, UniProt P21554); test: Displacement of [3H]CP55940 from recombinant human CB1 receptor expressed in CHO cell membranes after 2 hrs by liquid scintillation counting method; design: concentration or dose not given beside the values; conditions: concentration not given here
Sequence (P21554 whole entry): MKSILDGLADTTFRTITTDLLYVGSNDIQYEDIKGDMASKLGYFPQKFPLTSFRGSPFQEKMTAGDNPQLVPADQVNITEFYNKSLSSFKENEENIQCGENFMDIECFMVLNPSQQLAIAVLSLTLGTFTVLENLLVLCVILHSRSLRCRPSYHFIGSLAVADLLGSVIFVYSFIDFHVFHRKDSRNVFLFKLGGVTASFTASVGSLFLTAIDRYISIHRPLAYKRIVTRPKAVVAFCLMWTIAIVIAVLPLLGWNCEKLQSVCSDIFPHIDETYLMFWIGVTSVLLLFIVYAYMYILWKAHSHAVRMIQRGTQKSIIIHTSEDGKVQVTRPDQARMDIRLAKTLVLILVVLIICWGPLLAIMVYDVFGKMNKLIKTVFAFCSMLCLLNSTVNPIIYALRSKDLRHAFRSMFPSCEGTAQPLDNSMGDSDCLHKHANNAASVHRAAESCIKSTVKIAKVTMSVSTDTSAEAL
Provide the recorded inhibition for the entries that follow.
Field format: number, assumed %, no unit text.

# lookup: inhibition of `O=C1/C(=C/c2cccc(OCCCCCCCCOc3ccc(Cl)cc3)c2)N=C2SCCCN12`
-9

# lookup: inhibition of `Cc1cccc(C)c1OCCCCCCOc1cccc(/C=C2\N=C3SCCCN3C2=O)c1`
13

# lookup: inhibition of `Cc1ccc(COc2cccc(/C=C3\N=C4SCCCN4C3=O)c2)cc1`
22

# lookup: inhibition of `O=C1/C(=C/c2cccc(OCCCCCOc3ccc(Cl)cc3)c2)N=C2SCCCN12`
8

# lookup: inhibition of `CN1C(=N)NC(=O)/C1=C/c1cccc(OCc2ccc(Cl)cc2)c1`
43

# lookup: inhibition of `O=C1/C(=C/c2cccc(OCc3ccc(Cl)cc3)c2)N=C2SCCN12`
18

# lookup: inhibition of `O=C1/C(=C/c2cccc(OCCCCCCOc3ccccc3Cl)c2)N=C2SCCCN12`
19
